Where these numbers come from: paper PMC8370991

tgt: recombinant HTLV-1 IN (Human T-cell leukemia virus 1, UniProt P03362)
Construct: made in house
Sequence (P03362 1168-1462): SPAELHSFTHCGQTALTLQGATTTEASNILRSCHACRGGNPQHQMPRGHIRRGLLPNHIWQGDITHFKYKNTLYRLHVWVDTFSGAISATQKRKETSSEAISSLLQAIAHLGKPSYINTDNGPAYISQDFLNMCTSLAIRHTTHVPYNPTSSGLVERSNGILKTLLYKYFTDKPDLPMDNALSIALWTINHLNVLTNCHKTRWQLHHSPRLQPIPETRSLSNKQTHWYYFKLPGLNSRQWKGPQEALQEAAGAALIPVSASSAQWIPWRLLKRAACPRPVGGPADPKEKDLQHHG
assay method text: In vitro integration strand transfer assay with HTLV-1 IN
Assay type: biochemical
measurement parameters: Replicate 1; read-out: HTLV-1 IN strand transfer IC50
Listing: pIC50 of selected compounds
The scale used: pIC50 is minus the common logarithm of the concentration in molar units.

Example entries begin here.
Nc1c(C(=O)NCc2ccc(F)cc2F)c(=O)n(O)c2ncc(-c3ccccc3)cc12    6.56
Nc1c(C(=O)NCc2ccc(F)cc2F)c(=O)n(O)c2ncc(CCCCCCO)cc12    6.80
O=C(NCc1ccc(F)cc1F)c1c(NCCO)c2cc(CCCCCO)cnc2n(O)c1=O    6.57
Nc1c(C(=O)NCc2ccc(F)cc2F)c(=O)n(O)c2ncc(CCC(=O)NCCO)cc12    7.00
O=C(NCc1ccc(F)cc1F)c1c(NCCO)c2cccnc2n(O)c1=O    6.51
Nc1c(C(=O)NCc2ccc(F)cc2F)c(=O)n(O)c2ncc(CCCOCCO)cc12    6.75
Nc1c(C(=O)NCc2ccc(F)cc2F)c(=O)n(O)c2ncc(CCCO)cc12    6.84
Nc1c(C(=O)NCc2ccc(F)cc2F)c(=O)n(O)c2ncccc12    6.85

Input line: Give the measured pIC50 of CC(C)n1c(C(=O)N(C)C)c2c(c(O)c1=O)C(=O)N(Cc1ccc(F)c(Cl)c1)CC2 [XZ236, reference compound] .
Output line: 6.89

Input line: What do we get for Nc1c(C(=O)NCc2ccc(F)cc2F)c(=O)n(O)c2ncc(CCS(=O)(=O)c3ccccc3)cc12 ?
Output line: 6.84

Input line: Thanks! And COC(=O)CCc1cnc2c(c1)c(N)c(C(=O)NCc1ccc(F)cc1F)c(=O)n2O ?
Output line: 6.76
